# Test System: T1, rat FcRn (rat, UniProt P13599 23-298; P07151 21-119, limits assumed)
# T1 sequence (looked up) 1: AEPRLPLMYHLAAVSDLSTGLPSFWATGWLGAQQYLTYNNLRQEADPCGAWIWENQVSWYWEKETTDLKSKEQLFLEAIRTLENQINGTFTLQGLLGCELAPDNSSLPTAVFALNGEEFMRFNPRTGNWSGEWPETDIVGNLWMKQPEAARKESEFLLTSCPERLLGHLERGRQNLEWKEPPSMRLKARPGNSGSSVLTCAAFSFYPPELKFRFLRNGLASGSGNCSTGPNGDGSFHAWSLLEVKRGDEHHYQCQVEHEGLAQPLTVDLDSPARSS
# T1 sequence (looked up) 2: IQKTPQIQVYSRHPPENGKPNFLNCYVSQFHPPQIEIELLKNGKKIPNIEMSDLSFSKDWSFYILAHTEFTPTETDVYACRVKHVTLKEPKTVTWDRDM
# Test: SPR, pH 7.4
Measured Endpoint: Kd (nM)

[[record]]
binder = "Fc Fragment 10 (other, Human IgG1 Fc fragment; substitutions already in the entry) DKTHTCPPCPAPELLGGPSVFLFPPKPKDTLYITREPEVTCVVVDVSHEDPEVKFNWYVDGVEVHNAKTKPREEQYNSTYRVVSVLTVLHQDWLNGKEYKCKVSNKALPAPIEKTISKAKGQPREPQVYTLPPSRDELTKNQVSLTCLVKGFYPSDIAVEWESNGQPENNYKTTPPVLDSDGSFFLYSKLTVDKSRWQQGNVFSCSVLHEALKYHYTQKSLSLSPG"
reported_measurement = 11.5

[[record]]
binder = "Fc Fragment 13 (other, Human IgG1 Fc fragment; substitutions already in the entry) DKTHTCPPCPAPELLGGPSVFLFPPKPKDTLYITREPEVTCVVVDVSHEDPEVKFNWYVDGVEVHNAKTKPREEQYNSTYRVVSVLTVLHQDWLNGKEYKCKVSNKALPAPIEKTISKAKGQPREPQVYTLPPSRDELTKNQVSLTCLVKGFYPSDIAVEWESNGQPENNYKTTPPVLDSDGSFFLYSKLTVDKSRWQQGNVFSCSVMHEALRFHYTQKSLSLSPG"
reported_measurement = 16.2

[[record]]
binder = "Fc Fragment 12 (other, Human IgG1 Fc fragment; substitutions already in the entry) DKTHTCPPCPAPELLGGPSVFLFPPKPKDTLYITREPEVTCVVVDVSHEDPEVKFNWYVDGVEVHNAKTKPREEQYNSTYRVVSVLTVLHQDWLNGKEYKCKVSNKALPAPIEKTISKAKGQPREPQVYTLPPSRDELTKNQVSLTCLVKGFYPSDIAVEWESNGQPENNYKTTPPVLDSDGSFFLYSKLTVDKSRWQQGNVFSCSVMHEALRYHYTQKSLSLSPG"
reported_measurement = 17.3

